All figures here come from PubChem BioAssay (NCI).

Test system: MDA-MB-435 melanoma
Assay: NCI-60 one-dose screen, 48 h (100 = growth as untreated, 0 = no growth, -100 = all killed)
Settings: 10 µM unless noted
Compounds without any hit were thinned out: in the full panel of roughly 83,000, 20% have a hit. Activity calls are given as the source filed them. The calls were made as follows: active = growth percent below 10; inactive = the rest.

Compound | Test target | growth
C#CCOc1ccc(/C=N/Nc2nc(-c3cc(Cl)ccc3Cl)cs2)cc1 | MDA-MB-435 melanoma | 102% (inactive)
CN1CCN(c2ccc(C(=O)/C=C/c3ccc(Cl)c(C(F)(F)F)c3)cc2)CC1 | MDA-MB-435 melanoma | 13.7% (inactive)
Nc1nc(-c2cccc([N+](=O)[O-])c2)c(N=Nc2ccccc2Cl)s1 | MDA-MB-435 melanoma | 89.5% (inactive)
O=C(Nc1cccc(Cl)c1)Nc1nc2ccc(-c3cccc4ccccc34)cc2s1 | MDA-MB-435 melanoma | 54.3% (inactive)
CCCC(=O)NC(c1cccnc1)c1cc(C(C)=O)c2cccnc2c1O (centres undefined) | MDA-MB-435 melanoma | 34.5% (inactive)
COc1cc2oc(-c3cccc(NC(=O)c4cc(NC(=O)[C@H](C)NC(=O)OC(C)(C)C)ccc4C)c3)cc(=O)c2c(OC)c1OC | MDA-MB-435 melanoma | 90% (inactive)
C=CCn1c(SCC(=O)Nc2cccc(C(=O)/C=C/c3ccc(Cl)cc3)c2)nc2ccccc2c1=O | MDA-MB-435 melanoma | 92.3% (inactive)
CC1CCc2c(sc3nc(SCC(=O)N/N=C/c4cccc(O)c4O)n(-c4ccccc4)c(=O)c23)C1 (centres undefined) | MDA-MB-435 melanoma | 88.4% (inactive)
CCn1c2ccc(/C=N/OCCCN(C)C)cc2c2cc(/C=N/OCCCN(C)C)ccc21 | MDA-MB-435 melanoma | -48.9% (active)

###

Test system: CCRF-CEM leukemia
Assay: NCI-60 one-dose screen, 48 h (100 = growth as untreated, 0 = no growth, -100 = all killed)
Details: 10 µM unless noted
Compounds without any hit were thinned out: in the full panel of roughly 83,000, 20% have a hit.

Compound | U | growth
Cc1ccc(NC(=O)c2cccc(CN3CCN(C)CC3)c2)cc1Oc1ccc(-c2[nH]nc3ncnc(N)c23)cc1 | % | 47
CCN(CC)CCN1C(=O)c2c(c3c4cccnc4[nH]c3c3ccc4ccccc4c23)C1=O | % | 21.9
CC1CCc2c(sc3nc(SCC(=O)N/N=C/c4cccc(O)c4O)n(-c4ccccc4)c(=O)c23)C1 (stereo not given) | % | 91.9
CCCCCCCCCC[C@@H](C)[C@@H]1CC(=O)N[C@H]([C@@H](C)O)C(=O)N[C@@H](C)C(=O)N[C@H](C)C(=O)N[C@@H](CCC(N)=O)C(=O)N[C@H](Cc2ccc(O)cc2)C(=O)N[C@@H](C(C)CC)C(=O)O1 (stereo not given in full) | % | 63.2
COc1ccc(-c2nnc(SCc3ccc(O)c4ncccc34)o2)cc1 | % | 15.7
COc1ccc2c(C3=C(c4c[nH]c5ccccc45)C(=O)N(O)C3=O)coc2c1 | % | 26.9
N#C/C(=C\c1ccc(-c2ccc(F)cc2)o1)C(=O)Nc1ncc(Cc2ccc(Cl)cc2Cl)s1 | % | 4.62
Cc1cc(O)c2c(c1)C(=O)C(c1c(C)cc3c(c1O)C(=O)C=CC3=O)=CC2=O | % | 19.3
Oc1ccc(-c2nnc(SCc3ccc(O)c4ncccc34)n2-c2ccccc2)cc1 | % | 6.99
Nc1c(C(=O)c2ccccc2)sc2nc(-c3cnccn3)cc(-c3cccs3)c12 | % | 100
NC(=O)c1c(NC(=O)c2cccc(OC(F)(F)F)c2)sc2c1CCC(=O)C2 | % | 8.53
IP(CCCCCCCCCCSc1n(Cc2ccc3ccccc3c2)c(-c2ccccc2)c(-c2ccccc2)[n+]1Cc1ccc2ccccc2c1)(c1ccccc1)(c1ccccc1)c1ccccc1 | % | -33.7
CCCCCCNC(=O)Oc1ccc(/C(=C(/C)c2ccc(Cl)cc2)c2ccc(OCCN3CCCC3)cc2)cc1 | % | 4.42
Cc1cc(Cl)cc(NS(=O)(=O)c2ccc(-c3cnc(C4CC4)o3)cc2)c1 | % | 18.6
O=C1[C@H]2Cc3c([nH]c4ccccc34)[C@@H](c3c(Cl)cccc3Cl)N2C(=O)CN1C1CCN(Cc2ccccc2)CC1 | % | 21.7
C#C[C@]1(O)CC[C@H]2[C@@H]3CC=C4c5sc(Nc6nc(C)cc(OC)n6)nc5CC[C@]4(C)[C@H]3CC[C@@]21C | % | 12.7
C=C1C(=O)O[C@@H]2C[C@@H](C)[C@H](OC)CC(=O)[C@](C)(OC(C)=O)C[C@H](OC(=O)/C(C)=C\C)[C@@H]12 | % | -12.7
Cc1ccc(S(=O)(=O)N/N=C/c2cn(-c3ccc(F)cc3)nc2-c2ccc(S(C)(=O)=O)cc2)cc1 | % | 103
Cc1ccc(-c2cc(-c3ccc(N(C)C)cc3)n3c(n2)nc2ccccc23)cc1 | % | 54.8
CCOC(=O)c1c(NCC(=O)Nc2cccc(Cl)c2)sc2c1CCCC2 | % | 58
Cn1cc(-c2nn3cc(-c4ccncc4)nc3s2)c2cc(Cl)ccc21 | % | 10.5
CCCCCCNC(=O)Oc1ccc(/C(=C(\C)c2ccc(Cl)cc2)c2ccc(OCCN(C)C)cc2)cc1 | % | 36
COc1cc(C2=NN(C(C)=O)C(c3ccc(N4CCOCC4)cc3)C2)cc(OC)c1OC (stereo not given) | % | 97.3
COc1cc([C@H]2OC[C@H]3[C@@H]2CO[C@@H]3c2ccc(O)c(OC)c2)ccc1O | % | 94.2
Cc1cccc(NC(c2cc3cccc4ccc5cccc2c5c43)c2nnnn2C(C)(C)C)c1C (stereo not given) | % | 95
CCC(=O)Nc1ccc(-c2nc(-c3cccc(O)c3)c(-c3ccnc(Br)c3)[nH]2)cc1 | % | 22.4
COc1cc(CNC(=O)/C=C/c2ccccc2)ccc1OCC(=O)NO | % | 105
Cc1cc(NS(=O)(=O)c2ccc(-c3cnc(C4CC4)o3)cc2)ccc1I | % | 19.1
Oc1ccc(CSc2nnc(-c3ccccc3)o2)c2cccnc12 | % | 10
Nc1ccc(-c2nnc(SCc3ccc(O)c4ncccc34)o2)cc1 | % | 5.03
CCOc1ccc2nc(NC(=O)Nc3ccccc3C)sc2c1 | % | 47.7
COc1cc2cc(Oc3ccc(NC(=O)Nc4cccc(C(F)(F)F)c4)cc3)c(C)nc2cc1OCCN(C)C | % | 71.4
CN(c1ccc(Cl)cc1)S(=O)(=O)c1ccc(-c2cnc(C3CC3)o2)cc1 | % | 17.1
O=C1c2c(c3c4cccnc4[nH]c3c3ccc4ccccc4c23)C(=O)N1CCN1CCOCC1 | % | 23.9
CC(C)=CCc1c2c(c(O)c3c1O[C@]14C(=C[C@@H]5C[C@H]1C(C)(C)O[C@@]4(C/C=C(/C)C(=O)O)C5=O)C3=O)CC(O)C(C)(C)O2 (stereo not given in full) | % | 5.72

###

System: COLO 205 colon
Experiment: NCI-60 one-dose screen, 48 h (100 = growth as untreated, 0 = no growth, -100 = all killed)
Conditions: 10 µM unless noted
About 83,000 compounds went through this panel and 20% of them were active in at least one assay; those are over-represented in the sample as a whole.
Here the recorded growth is given for each entry.
Experimental endpoint: growth (%)

Compound | U | Recorded number
CCN(CC)CCCC(C)NCC(=O)NC(c1ccc2c(c1)OCO2)c1cc(Cl)c2cccnc2c1O (stereo not drawn) | % | 17.6
CCOC(=O)C1=C(C)N=C2Sc3ccccc3N2C1c1ccccc1 (stereo not drawn) | % | 96
Cc1cc(C(=O)Nc2ccc(SC#N)cc2)c(C)o1 | % | 106

###

System: NCI-H322M lung
Assay: NCI-60 one-dose screen, 48 h (100 = growth as untreated, 0 = no growth, -100 = all killed)
Conditions: 10 µM unless noted
This is part of a sample that, as a whole, favours compounds with a hit. Of some 83,000 tested, about 20% had one in any assay.
just bin them by growth: lower band: < 60%; central band: ≥ 60% and < 90%; upper band: ≥ 90%

Molecule | Test target | Discrete label
O=C(NNc1nc2cc(F)cc(F)c2n2cccc12)c1ccncn1 | NCI-H322M lung | lower band
COc1cc2c3c(n(CCCNC4CCC4)c(=O)c2cc1OC)-c1cc2c(cc1C3=O)OCO2 | NCI-H322M lung | lower band
COc1ccc(-c2nn(-c3ccccc3)cc2/C=C/C(=O)c2ccc(NC(=O)CCCCCCC(=O)NO)cc2)cc1 | NCI-H322M lung | upper band
O=C(CCCCCCN1CC(=O)N2[C@@H](c3cccc(Cl)c3)c3[nH]c4ccccc4c3C[C@H]2C1=O)NO | NCI-H322M lung | central band
CN(c1ccc(Br)cc1)S(=O)(=O)c1ccc(-c2cnc(C3CC3)o2)cc1 | NCI-H322M lung | lower band
COc1cc(/C=N/n2cnc3oc(-c4ccccc4)cc3c2=N)cc(CN2CCCC2)c1O | NCI-H322M lung | upper band
N#C/C(=C\c1ccc(N2CCCCC2)cc1)C(=O)Nc1sc2c(c1C#N)CCC2 | NCI-H322M lung | upper band
COc1ccc(-c2nnc(/N=C3/C(=O)Nc4ccc(Br)cc43)o2)cc1 | NCI-H322M lung | upper band
C=CCn1c(SCC(=O)Nc2cccc(C(=O)/C=C/c3cc(OC)c(OC)c(OC)c3)c2)nc2ccccc2c1=O | NCI-H322M lung | central band
COc1ccccc1/C=C/C=N/NC1=NC2C(S1)N(C)C(=O)N2c1ccccc1 (centres undefined) | NCI-H322M lung | lower band
C#Cc1ccc(NC(=O)c2ccc(/C=C/C(=O)c3nccn3C)cc2)c(F)c1 | NCI-H322M lung | lower band
COc1ccc(-c2nc(SCC(C)C)nc(N/N=C\c3cccc([N+](=O)[O-])c3)c2C#N)cc1 | NCI-H322M lung | lower band
COc1ccc(-c2cc(-c3ccc(Cl)cc3)nc3nc(N)nn23)cc1 | NCI-H322M lung | upper band
O=c1c2ccccc2nc(COc2ccccc2)n1/N=C/C=C/c1ccccc1 | NCI-H322M lung | upper band
O=C1CC2(CCOCC2)Oc2ncccc21 | NCI-H322M lung | upper band
CC1=C2C(=C[C@@](C)(COS(N)(=O)=O)[C@@H]2O)C(=O)[C@](C)(O)C12CC2 | NCI-H322M lung | central band
